# reported GI50; entries follow
# System: SF-268 CNS
# assay: NCI tumour cell line growth inhibition, 48 h

compound: CCN1C(=O)N(CC)C2C1NN=c1s/c(=C\c3cccs3)c(=O)n12 (stereo not drawn)
GI50: 1670 nM

compound: COc1ccc(C(C#N)=C2C=CC(=NO)C=C2)cc1
GI50: 3810 nM

compound: C=C1C(=O)O[C@H]2[C@H]1CC/C(COC(=O)c1cn(C)c3ccccc13)=C\CC[C@@]1(C)O[C@@H]21
GI50: 1300 nM

====

# reported TGI; entries follow
# Test system: TK-10 renal
# assay: NCI tumour cell line growth inhibition, 48 h

molecule: O=S(c1ccccc1)C1CC2CC3(CCC21O)OCCO3 (stereo not drawn)
measured_on: TK-10 renal
TGI: > 100 µM

molecule: O=C1NC(O)c2ccccc2O1 (stereo not drawn)
measured_on: TK-10 renal
TGI: > 100 µM

molecule: COc1cc(OCc2nc3cc(C(F)(F)F)ccc3nc2-c2ccccc2)cc(OC)c1OC
measured_on: TK-10 renal
TGI: > 100 µM

====

# Test system: MALME-3M melanoma
# assay: NCI tumour cell line growth inhibition, 48 h

compound: Cc1cc(C(=O)Nc2cc(Oc3ccc4nc(NC(=O)C5CC5)cn4n3)ccc2C)n(C)n1
TGI: > 10 µM

compound: O=C1/C(=C/c2ccc(F)c(F)c2)CN(C(=O)C(Cl)Cl)C/C1=C\c1ccc(F)c(F)c1
TGI: 0.539 µM

compound: Cc1cn(CCC(N)C(=O)O)c(=O)[nH]c1=O (stereo not given)
TGI: > 100 µM

compound: COc1cc2c3c(n(CCCCNC(=O)OC(C)(C)C)c(=O)c2cc1OC)-c1cc2c(cc1C3=O)OCO2
TGI: > 100 µM

compound: O=C(O)C1CCN(Cc2oc(CO)cc(=O)c2O)C1 (stereo not given)
TGI: > 100 µM

====

# reported TGI; entries follow
# System: OVCAR-5 ovarian
# assay: NCI tumour cell line growth inhibition, 48 h

molecule: Fc1ccc2[nH]cc(-c3nc(-c4c[nH]c5ccncc45)cs3)c2c1
measured_on: OVCAR-5 ovarian
qualifier_operator: =
TGI, µM: 3.38
--
molecule: Cc1ccc2n(c1)cc(-c1ccc(/C=N/NC(=N)N/N=C/c3ccc(-c4cn5cc(C)ccc5[n+]4C)cc3)cc1)[n+]2C
measured_on: OVCAR-5 ovarian
qualifier_operator: >
TGI, µM: 100
--
molecule: COc1cc(OC)cc(-c2nc3sccn3c2/C=N/N=C(N)N)c1
measured_on: OVCAR-5 ovarian
qualifier_operator: =
TGI, µM: 13.8
--
molecule: COc1cc(OC)c(/C=C/C(=O)c2ccc(Nc3ncnc4ccccc34)cc2)c(OC)c1
measured_on: OVCAR-5 ovarian
qualifier_operator: =
TGI, µM: 5.32
--
molecule: Cc1c(NC(=O)CCl)c(=O)oc2c(C)c3occc(=O)c3cc12
measured_on: OVCAR-5 ovarian
qualifier_operator: =
TGI, µM: 32.4
--
molecule: Cc1cc(C(=O)Nc2cc(Oc3ccc4nc(NC(=O)C5CC5)cn4n3)ccc2C)n(C)n1
measured_on: OVCAR-5 ovarian
qualifier_operator: >
TGI, µM: 10
--
molecule: N/C(=N\S(=O)(=O)c1ccc(-c2ccccn2)s1)Nc1ccc(Cl)cc1
measured_on: OVCAR-5 ovarian
qualifier_operator: =
TGI, µM: 40.2
--
molecule: CC(CN1CC(=O)NC(=O)C1)N1CC(=O)NC(=O)C1 (stereo unspecified)
measured_on: OVCAR-5 ovarian
qualifier_operator: =
TGI, µM: 749
--
molecule: N#C/C=c1/c2ccccc2n2nc3ccccc3c12
measured_on: OVCAR-5 ovarian
qualifier_operator: >
TGI, µM: 100
--
molecule: COc1cc(S(=O)(=O)Nc2ccc(-c3csc(N4C(=O)C(Cl)C4c4cccc(Oc5ccccc5)c4)n3)cc2)ccc1Cl (stereo unspecified)
measured_on: OVCAR-5 ovarian
qualifier_operator: >
TGI, µM: 100
--
molecule: O=C1NC(O)c2ccccc2O1 (stereo unspecified)
measured_on: OVCAR-5 ovarian
qualifier_operator: >
TGI, µM: 100
--
molecule: COC1(OC)C2(Cl)C(Cl)=C(Cl)C1(Cl)C1c3ccc(C(C)=O)c4cccc(c34)C12 (stereo unspecified)
measured_on: OVCAR-5 ovarian
qualifier_operator: >
TGI, µM: 100
--
molecule: O=P(O)(O)OCC1OC(n2cnc3c(NCc4ccco4)ncnc32)C(O)C1O (stereo unspecified)
measured_on: OVCAR-5 ovarian
qualifier_operator: >
TGI, µM: 100
--
molecule: Nc1nc2c(c(-c3ccccc3Cl)n1)COC/C2=C\c1ccccc1Cl
measured_on: OVCAR-5 ovarian
qualifier_operator: =
TGI, µM: 31.7
--
molecule: CCOc1cc(C(=O)O)c2c(ccc3ccc(OC)c(OC)c32)c1OC
measured_on: OVCAR-5 ovarian
qualifier_operator: >
TGI, µM: 100
--
molecule: N/C(=N\NC(=O)c1nc2ccccc2s1)c1ccccn1
measured_on: OVCAR-5 ovarian
qualifier_operator: =
TGI, µM: 65.7
--
molecule: O=C1/C(=C/c2ccc(F)c(F)c2)CN(C(=O)C(Cl)Cl)C/C1=C\c1ccc(F)c(F)c1
measured_on: OVCAR-5 ovarian
qualifier_operator: =
TGI, µM: 0.421
--
molecule: O=S(c1ccccc1)C1CC2CC3(CCC21O)OCCO3 (stereo unspecified)
measured_on: OVCAR-5 ovarian
qualifier_operator: >
TGI, µM: 100
--
molecule: Cc1nc2ccccc2c(=O)n1NC(=O)c1ccccc1[N+](=O)[O-]
measured_on: OVCAR-5 ovarian
qualifier_operator: >
TGI, µM: 100
--
molecule: O=c1/c(=C/c2c(O)ccc3ccccc23)sc2nc3ccccc3n12
measured_on: OVCAR-5 ovarian
qualifier_operator: >
TGI, µM: 100
--
molecule: CCCCC[C@H]1CC=C2C(=O)C=C[C@@H]2CC=CCCCC(=O)O[C@@H](CCCCC)CC=C2C(=O)C=C[C@@H]2CC=CCCCC(=O)O[C@@H](CCCCC)CC=C2C(=O)C=C[C@@H]2CC=CCCCC(=O)O1
measured_on: OVCAR-5 ovarian
qualifier_operator: >
TGI, µM: 8.75

====

# Tested on: SF-539 CNS
# assay: NCI tumour cell line growth inhibition, 48 h
Where a SMILES comes first, the peptide text is derived from it. [ ]: non-standard residue; d: D form. The star is where a group is joined. X28 = COC1=CC(=O)N(C(=O)[C@@H](O*)C(C)C)[C@H]1Cc1ccccc1; Bn2Val = CC(C)[C@@H](C(=O)*)N(Cc1ccccc1)Cc1ccccc1; NMeV = CN[C@H](C(=O)O)C(C)C; dNMeA = CN[C@H](C)C(=O)O
# reported TGI; entries follow

compound: C=CCOC(=O)c1c(C)n([O-])c2cc(Cl)c(Cl)cc2[n+]1=O
TGI: 45.7 µM

compound: COC1=CC(=O)N(C(=O)[C@@H](OC(=O)[C@@H](C)N(C)C(=O)[C@@H]2CCCN2C(=O)[C@H](C(C)C)N(C)C(=O)[C@@H](NC(=O)[C@H](C(C)C)N(Cc2ccccc2)Cc2ccccc2)C(C)C)C(C)C)[C@H]1Cc1ccccc1 (Bn2Val-V[NMeV]P[dNMeA]-X28)
TGI: > 100 µM

compound: O=C1NC(=O)C(=Cc2c3ccccc3cc3ccccc23)C(=O)N1
TGI: > 100 µM

compound: S=c1nc(C(c2ccccc2)c2ccccc2)[nH][nH]1
TGI: > 100 µM

compound: O=C1OC(c2ccccc2)(c2ccccc2)c2ccc3ccc(F)cc3c21
TGI: > 100 µM

compound: Cc1c(-c2coc(-c3ccccc3)n2)c(=O)n(-c2ccccc2)n1C
TGI: > 100 µM

compound: CCCN(CCC)CCc1cc(C(C)=O)n(S(=O)(=O)c2ccc(C)cc2)c1
TGI: > 100 µM

compound: COc1cccc2c1C(=O)c1c(O)c3c(c(O)c1C2=O)C[C@@](O)(C(=O)CN1CCOCC1)C[C@@H]3OC1CC(N)C(O)C(C)O1 (stereo partly drawn)
TGI: 23.6 µM

====

# System: A498 renal
# assay: NCI tumour cell line growth inhibition, 48 h
# reported TGI; entries follow

molecule: Cc1c(NC(=O)CCl)c(=O)oc2c(C)c3occc(=O)c3cc12
measured_on: A498 renal
qualifier_operator: =
TGI [µM]: 31.7
--
molecule: Cn1cnc([N+](=O)[O-])c1Sc1nnnn1C
measured_on: A498 renal
qualifier_operator: >
TGI [µM]: 100
--
molecule: Nc1ncnc2c1sc(=S)n2-c1ccccc1
measured_on: A498 renal
qualifier_operator: >
TGI [µM]: 100
--
molecule: Cn1cc(-c2nc(-c3c[nH]c4ccncc34)cs2)c2ccccc21
measured_on: A498 renal
qualifier_operator: =
TGI [µM]: 3.3
--
molecule: Cc1c(N)nc([C@H](CC(N)=O)NC[C@H](N)C(N)=O)nc1C(=O)N[C@H](C(=O)N[C@H](C)[C@@H](O)CC(=O)N[C@H](C(=O)NC(O[C@@H]1O[C@@H](C)[C@@H](N)[C@@H](O)[C@H]1O)C(O)c1nc(-c2nc(C(=O)NCCCCN)cs2)cs1)[C@@H](C)O)[C@@H](O[C@@H]1O[C@@H](CO)[C@@H](O)[C@H](O)[C@@H]1O[C@H]1O[C@H](CO)[C@@H](O)[C@H](OC(N)=O)[C@@H]1O)c1c[nH]cn1 (some centres not stated)
measured_on: A498 renal
qualifier_operator: >
TGI [µM]: 50
--
molecule: CCCc1n[nH]c(=O)n1N1C(=O)C=CC1=O
measured_on: A498 renal
qualifier_operator: >
TGI [µM]: 100
--
molecule: O=C(N/C(=C\c1c(O)ccc2ccccc12)c1nc2ccccc2[nH]1)c1ccccc1
measured_on: A498 renal
qualifier_operator: >
TGI [µM]: 100
--
molecule: CC/C=C\C[C@H](O)C/C=C1/C(=O)C=C[C@@H]1C/C=C\CCCC(=O)OC(C)C
measured_on: A498 renal
qualifier_operator: =
TGI [µM]: 8.12
--
molecule: C=CCOC(=O)c1c(C)n([O-])c2cc(Cl)c(Cl)cc2[n+]1=O
measured_on: A498 renal
qualifier_operator: =
TGI [µM]: 62.6
--
molecule: CCC#CC[C@H](O)C/C=C1/C(=O)C=C[C@@H]1C/C=C\CCCC(=O)OC
measured_on: A498 renal
qualifier_operator: =
TGI [µM]: 13.7
--
molecule: COc1cc(-c2nn(-c3cccc(NC(=O)NCCNS(=O)(=O)c4ccc(Cl)cc4)c3)cc2-c2ccncc2)ccc1Cl
measured_on: A498 renal
qualifier_operator: =
TGI [µM]: 4.31
--
molecule: CCCCCCCCCCCC[N+](C)(C)Cc1ccccc1
measured_on: A498 renal
qualifier_operator: =
TGI [µM]: 24.8
--
molecule: CO[C@H]1CC[C@]2(C)C3=CC[C@@]4(C)C(CC[C@@H]4C(C)CC[C@@H](C)C(C)C)C(=CCC2C1)O3 (some centres not stated)
measured_on: A498 renal
qualifier_operator: >
TGI [µM]: 25
--
molecule: Cc1c(OCCCOc2ccc3c(=O)cc(-c4ccccc4)oc3c2C)ccc2c(=O)cc(-c3ccccc3)oc12
measured_on: A498 renal
qualifier_operator: >
TGI [µM]: 100
--
molecule: COc1cc2c3c(n(CCCCNC(=O)OC(C)(C)C)c(=O)c2cc1OC)-c1cc2c(cc1C3=O)OCO2
measured_on: A498 renal
qualifier_operator: >
TGI [µM]: 100
--
molecule: C/C=C/c1cc2c(c(=O)o1)C(=O)[C@@H](O)[C@H](C)O2
measured_on: A498 renal
qualifier_operator: =
TGI [µM]: 16.9
--
molecule: COC(=O)[C@H]1[C@@H](O)[C@@]2(O)c3c(OC)cc(OC)cc3O[C@@]2(c2ccc3c(c2)OCO3)[C@@H]1c1ccccc1
measured_on: A498 renal
qualifier_operator: >
TGI [µM]: 50
